# TEST_SYSTEM: β2-Adrenoceptor (Rattus norvegicus)
# Construct: Uteri of pregnant SD rats (pregnancy day 21) were isolated and longitudinal smooth muscle strips
# Sequence (P10608 whole entry): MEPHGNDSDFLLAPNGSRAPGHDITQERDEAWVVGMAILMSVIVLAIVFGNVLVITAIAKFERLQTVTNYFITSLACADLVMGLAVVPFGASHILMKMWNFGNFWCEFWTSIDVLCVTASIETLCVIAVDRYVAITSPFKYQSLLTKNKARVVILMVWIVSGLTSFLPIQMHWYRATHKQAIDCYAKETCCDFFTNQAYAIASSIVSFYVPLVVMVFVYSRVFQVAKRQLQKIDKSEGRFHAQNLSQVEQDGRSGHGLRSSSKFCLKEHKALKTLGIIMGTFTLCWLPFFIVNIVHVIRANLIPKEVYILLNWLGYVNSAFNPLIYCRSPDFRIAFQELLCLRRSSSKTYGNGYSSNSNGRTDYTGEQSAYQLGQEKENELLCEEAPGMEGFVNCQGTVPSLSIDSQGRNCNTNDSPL
# TEST_NAME: β2-Adrenoceptor stimulating effects: inhibition of spontaneous contractions of isolated pregnant rat uterus (Magnus method)
# APPLIED_CONDITIONS: isolated uterus of pregnant SD rats (day 21), cumulative addition every 5 minutes, read-out: EC50 value (concentration required to produce 50% inhibition of uterine contractions), Test Example 1
pEC50: −log10 of the molar value.
RECORDED_ENDPOINT: pEC50

                                   compound  recorded_endpoint  value_observed
0  C[C@H](NCCc1ccc(OCC(=O)O)cc1Cl)[C@H](O)c1ccc(O)cc1              pEC50            7.89

[I] C[C@H](NCCc1ccc(OCC(=O)OCc2ccccc2)cc1F)[C@H](O)c1ccc(O)cc1.Cl [Compound 7, hydrochloride]
[II] C[C@H](NCCc1ccc(OCC(=O)O)cc1F)[C@H](O)c1ccc(O)cc1
Please state the entry with greater pEC50 among I and II . The response must carry the label of the picked entry.
I
